System: MS2 coat protein
METHOD_DESCRIPTION: apparent KD of MS2 coat protein; designed switch direction (-1 OFF switch, 1 ON switch): -1; higher = weaker reporter binding
EXPERIMENTAL_PARAMETERS: input ligand: none
Decide by apparent KD of MS2 coat protein: equal to or exceeding 40 nM means YES, less means NO.

INPUT_SEQUENCE	MEASURED_ON	ASSIGNED_LABEL
GGUCAUCAAGUCAGGAUAUCGUCUGGUCGGUCUGGCGAGAAGGGACAUGAGGAUCACCCAUGUCGACUCAUCAG [Ex4 #11] (Eterna round: R97, puzzle: Brourd's mod of Exclusion 4)	MS2 coat protein	NO
UUAUUAUAUGUAGGAUAUGCGUAUUAUUGUUAUGCAGAAGGACAUGAGGAUCACCCAUGUAUAUUAUUGUUAUAUAUUAUAUGU [Title] (Eterna round: R96, puzzle: Exclusion NG 1)	MS2 coat protein	NO
AAAACUUUGAGAGGAUAUCUGAAAGGAAGUGUAAGAGAAGGCUCAGAGGACAUGAGGAUCACCCAUGUACGUCAUGGGCUCCGA [PowerStrip EXNG 1.15] (Eterna round: R96, puzzle: Exclusion NG 1)	MS2 coat protein	YES
CGCAUGUAAGGAUAUUAGUAGUAGUCAGAAUAGACUAUUACUGAGAAGGUACAUGAGGAUCACCCAUGUCAGCG [Eli x4 4.17] (Eterna round: R97, puzzle: Exclusion 4)	MS2 coat protein	YES
UUGUAACAUGAGGAUCACCCAUGUGAGGAUAUGGCCCGCCCGGCGUGAGCUGGUUUUGUCAGAAGGCGCAUAGG [salish99_ex1_r4_022] (Eterna round: R97, puzzle: Exclusion 1)	MS2 coat protein	YES
CAGUACUGAGGAUAUACAUGAGGAUCACCCAUGUGUCCCAGCUAGGAAACUAGCAAAAGUAGAAGGCAGUACUG [828 mod 2 m4] (Eterna round: R97, puzzle: Exclusion 3)	MS2 coat protein	NO
UGUGUGAGACAGGAUAUGCCAGAUAUAUUACUGGUAGAAGGGUCUACAUGAGGAUCACCCAUGUGGCCGGCCGG [Ex6 #85] (Eterna round: R97, puzzle: Exclusion 6)	MS2 coat protein	NO
GGGCUGUCAGGAUAUUCGAGUUCGAGUGAAAGCUUGAGCUUGAAGAAGGGACAUGAGGAUCACCCAUGUGGCCC [-32.1, -31.1 kcal, A 26%, 1bis-0] (Eterna round: R97, puzzle: Exclusion 4)	MS2 coat protein	NO
UGGUCACAUGAGGAUCACCCAUGUCAGGAUAUCUACAUUGAAGCUGCGGCUUCAAUGUAGAGAAGGGACAUAAU [E1/7-B3] (Eterna round: R97, puzzle: Exclusion 1)	MS2 coat protein	YES
UAUUUAUAUGAAGGAUAUACUUAACAUGAGGAUCACCCAUGUGGUGUUGUGAGUGAGUGAGUUUAGUAGAAGGUCAAUUAUUUU [JMF's solution 30] (Eterna round: R96, puzzle: Exclusion NG 2)	MS2 coat protein	YES
AGUACUAUCACGAAAGUGAUAGUACAAUAAGCUUGUGAAACAUGAGGAUCACCCAUGUCCUCAUAAGCUCGUCUUAU [JL turnoff v2 77] (Eterna round: R96, puzzle: Sensor v2, turn-off variant 2)	MS2 coat protein	NO
GAGUGAUAAGGAUAUACAUGAGGAUCACCCAUGUGCUUCAGCUAGGAGACUAGCAUUGGUAGAAGGUAUUACUC [Mod of lroppy 11 - Jieux - Exclusion 3] (Eterna round: R97, puzzle: Exclusion 3)	MS2 coat protein	NO
UUUUUCUCAGGAUAUACAUGAGGAUCACCCAUGUAUAUUAAUGGUAAUACAUGGGAAUGUAGAAGGGAGCUCAU [Omei Ex3 Pseudoloop 15] (Eterna round: R97, puzzle: Exclusion 3)	MS2 coat protein	YES

###

Test system: MS2 coat protein
METHOD_DESCRIPTION: apparent KD of MS2 coat protein, switch ON state; designed switch direction (-1 OFF switch, 1 ON switch): 1; higher = weaker reporter binding
EXPERIMENTAL_PARAMETERS: FMN input: 0 or 200 uM; Eterna round: R93 (includes R88 designs)
apparent KD of MS2 coat protein by entry:
MEASURE_NAME: apparent KD of MS2 coat protein (nM)

INPUT_SEQUENCE	UNITS_LABEL	MEASUREMENT
AAAAAACAUGAGGAUCACCCAUGUAUAAAAUGGGAAGGAUAUACUAAGACGAAAGUCAUAGUAGAAGGUCCAAAAA [76%, Meechl, 12]	nM	44.5
CUAAUUGCAUAUUAGGAUAUACACUGGGUGACAUGAGGAUCACCCAUGUAAAAGCACACUCGGUAGUAGAAGGAGUGUGCAAGUC [Iserso]	nM	36
AAAUAAAUGACUGAGGAUAUGUCGAAGAAAACAUGAGGAUCACCCAUGUGAUAAUAAAAAGGGUGAUAGAAGGUAGUCAACAAAC [Mod 10 of Pariah 4 by Hyphema in Round 1]	nM	323
UGGAGACAUGAGGAUCACCCAUGUGAGAAGAGGCGAGGAUAUCGAAAGAAAGAAGAGAAACGAGAAGGCGCGAGAA [salish99-SS1-033]	nM	13
GGAGCCGGUACUGAGGAUAUUCAUAUUAAAACAUGAGGAUCACCCAUGUAGGCCAGAAGGCCUUGGGAGAAGGCAGACCAGCUCG [Atgexeedri]	nM	19.1
AAGAUACAUGAGGAUCACCCAUGUUUUGGUGGGUCAGGAUAUAAAAAGAAUGAGAGAAAGUUAGAAGGGACAAAGA [JR_SS001_Sub005]	nM	201
GAAAAACAUGAGGAUCACCCAUGUGUAAACACGGGAGGAUAUACGAAGACGUAAGUCAAAGUAGAAGGCCUAAAAG [Garnet 40]	nM	18.9
UGAAGACAUGAGGAUCACCCAUGUGGGAAUAUGGGAGGAUAUACAAAGACGAGAGUCAGAGUAGAAGGCCUAGGAU [salish99-ss1-96]	nM	36.7
AAAAUAAAAAGGUAGGAUAUGGGUAAGUCUACAUGAGGAUCACCCAUGUAAUAAAAAGAAAAAAACCAGAAGGACCAAAAUAAAA [72%, More Wateronthemoon, 11]	nM	20.2
AGAAAUAAAAGAGAGGAUAUCCAAAAGAAAACAUGAGGAUCACCCAUGUAAAAGAAAAUAAAAUGGGAGAAGGCUCAUAUUAAAG [JL Skelter 2 mod 3]	nM	44.9
AAACCACAUGAGGAUCACCCAUGUAAGAUAUACAUAGGAUAUGCGAAAAGAAACAAAGAAGCAGAAGGGUGGAAAA [75%, Ex sub1, 15]	nM	100
GAAAAACAUGAGGAUCACCCAUGUGAAAAUAUGGGAGGAUAUACAAGGACGAAAGUCAAGGUAGAAGGCCUAAAAG [Mat - Same State 1 - Eli mod - 27]	nM	39.4
AAUACACAUGAGGAUCACCCAUGUAGAAAGAAGGCAGGAUAUCAGAUCCACAUGUGAUAAUGAGAAGGGCCAAUAU [SS 1 Tesla 10]	nM	21.9
AUUCCAAAUAGUCAGGAUAUCAGGAGUAAGACAUGAGGAUCACCCAUGUACUUAGUAAAAGUAACUGAGAAGGGACAGGGUGUAA [JR_SS002_Sub406]	nM	30
GAAAAACAUGAGGAUCACCCAUGUGAAAAUAUGGAAGGAUAUACAAAGACGAAAGUCAAAGUAGAAGGUCUAAAAG [Mat - Same State 1 - Eli mod - D14]	nM	15
AAACCACAUGAGGAUCACCCAUGUAGAAAUAUGGGAGGAUAUACAAACACGAAAGUGAAAGUAGAAGGCCUAAAAG [77%, Mat - Mod of Eli, 7]	nM	17.7
AGGAAACAUGAGGAUCACCCAUGUAAAAAUAUGGGAGGAUAUACAAACAAGAAAGUCAGAGUAGAAGGCCUAAAAG [Garnet 7]	nM	73.7
AAAAAAUAAAAAAAGGAUAUAAAUCCUAGAACAUGAGGAUCACCCAUGUACUAGGAAAAAAUAAAAAAGAAGGAAAAAUAAAAAA [SS2: MS2 19]	nM	18.1
AAGAUACAUGAGGAUCACCCAUGUCGAGAGAGACGAGGAUAUCUGAAUCGAUUAGAUUACGGAGAAGGCGUGAAAA [LROPPY Same State 1 - v07_deltaG=1.9]	nM	19.4
AAGAAAGAAACAUAGGAUAUCAAGGAUAUAACAUGAGGAUCACCCAUGUAAAUACGAAAGUAUAAUGAGAAGGAUGGAUGAUCUUC [Meechl MS2 SS2]	nM	28.9

###

Tested on: MS2 coat protein
METHOD_DESCRIPTION: apparent KD of MS2 coat protein; higher = weaker reporter binding
EXPERIMENTAL_PARAMETERS: Eterna round: R107; input ligand: arginine 13.2 mM
apparent KD of MS2 coat protein by entry:

INPUT_SEQUENCE	apparent KD of MS2 coat protein (nM)
CAGUGAGAGUCGGCCGCCACUUAACGCAAGUAGCGCAACCCAAAACAUGAGGAUCACCCAUGUCGAAGGACCGGGACAAUGAGCG [theeternabot_sameState_MS2_Trp_B_47]	11.5
GCGAUACAUGAGGAUCACCCAUGUGCAGAUACCAGAGGUGCAUGCCUCCCUUGGCAGCUGCGACGCUCUGGCAUCUUGUGGGAUG [Same State Theophylline A GF20]	37.6
ACGACGCAUAGUGAUACCAGUAGAACAUGAGGAUCACCCAUGUCUGUGACGCACAAACUCUGCCCUUGGCAGCACUAUGCGUCAG [SSTheo B #7]	12
ACAUGAAGAACAGCGGUGGGCGCGCUCGAUACCAGUACUUUAAAAUACCCUUGGCAGCGACAUGAGGAUCACCCAUGUGAGAUGA [XTheo A #4]	15.3
AGGACGGUCGGAAGGAGCGGUACAUGAGGAUCACCCAUGUAUUCCUGGGCAUCCGUAGUGUGCCAGGUAGGUCGCCGAUUGCGGG [XArg-B7]	57.6
